- study.system: human SSTR4 (Homo sapiens)
- Construct: expressed in transfected cells; host or cells: CHO-K1
- Sequence (P31391 whole entry): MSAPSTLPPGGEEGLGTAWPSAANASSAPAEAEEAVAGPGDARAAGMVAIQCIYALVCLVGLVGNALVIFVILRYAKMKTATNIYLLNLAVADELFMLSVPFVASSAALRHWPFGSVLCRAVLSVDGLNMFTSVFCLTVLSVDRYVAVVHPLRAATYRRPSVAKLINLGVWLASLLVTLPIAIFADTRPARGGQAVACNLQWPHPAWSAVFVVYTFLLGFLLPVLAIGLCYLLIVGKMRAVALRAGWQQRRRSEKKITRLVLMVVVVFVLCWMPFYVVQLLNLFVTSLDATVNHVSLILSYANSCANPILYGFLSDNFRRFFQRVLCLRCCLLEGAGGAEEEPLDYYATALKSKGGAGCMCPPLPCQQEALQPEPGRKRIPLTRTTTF
- assay.info: hSSTR4 cAMP assay (cAMP accumulation, LANCE Ultra cAMP kit, CHO-K1 human SSTR4 Gi cell line)
- Type: cell-based
- test.settings: functional agonism, forskolin 10 μM stimulated CHO-K1 human SSTR4 Gi cells, 30 min at 25° C., at least duplicate, averaged; read-out: hSSTR4 EC50
Assign labels as follows, please: Y for EC50 below 0.5 nM; N for EC50 equal to or exceeding 0.5 nM.

[[record]]
molecule = "CN1CCNC[C@H]1C(=O)NC(C)(C)c1ncc2c(C3CC3)cccn12 [SC-118]"
study_system = "human SSTR4 (Homo sapiens)"
class_name = "N"

[[record]]
molecule = "CC(C)(NC(=O)[C@@H]1CNCCN1CC1CC(F)(F)C1)c1ncc2c(C3CC3)cccn12 [SC-121]"
study_system = "human SSTR4 (Homo sapiens)"
class_name = "N"

[[record]]
molecule = "Cc1cccn2c(C(C)(C)NC(=O)[C@@H]3CNCCN3CC(F)(F)F)ncc12 [SC-017]"
study_system = "human SSTR4 (Homo sapiens)"
class_name = "Y"

[[record]]
molecule = "Cc1cccn2c(C(C)(C)NC(=O)[C@@H]3CN(Cc4ccccc4)CCN3)ncc12 [SC-058]"
study_system = "human SSTR4 (Homo sapiens)"
class_name = "N"

[[record]]
molecule = "Cc1cccn2c(C(C)(C)NC(=O)[C@@H]3CN(C)CCN3CC3CCOCC3)ncc12 [SC-047]"
study_system = "human SSTR4 (Homo sapiens)"
class_name = "Y"

[[record]]
molecule = "Cc1cccn2c(C(C)(C)NC(=O)[C@@H]3CNCCN3Cc3cnn(C)c3)nc(C)c12 [SC-117]"
study_system = "human SSTR4 (Homo sapiens)"
class_name = "N"

[[record]]
molecule = "Cc1cccn2c(C(C)(C)NC(=O)[C@@H]3CNCCN3CC3CC(F)(F)C3)nc(C)c12 [SC-115]"
study_system = "human SSTR4 (Homo sapiens)"
class_name = "Y"

[[record]]
molecule = "Cc1cccn2c(C(C)(C)NC(=O)[C@@H]3CNCCN3C(C)C)ncc12 (racemic) [SC-002]"
study_system = "human SSTR4 (Homo sapiens)"
class_name = "N"

